- experiment: Solubility of Ipriflavon in aqueous cyclodextrin solutions (4 days agitation, 25° C., photometric)
- Format: physicochemical
- condition_context: aqueous α-cd 40 mg/ml, Solubility of Ipriflavon

# compound, solubility at 96 h (µg/mL)
rows = [
    ("CC(C)Oc1ccc2c(=O)c(-c3ccccc3)coc2c1 [Ipriflavon, 7-isopropoxy-isoflavon]", 9.63),
]

###

- experiment: Solubility of Ipriflavon in aqueous cyclodextrin solutions (4 days agitation, 25° C., photometric)
- Type: physicochemical
- condition_context: 15% aqueous dimeb, solubility in DIMEB solution
measured_property: solubility at 96 h

# test_smiles, measured_property, value_measured
data = [
    ("CC(C)Oc1ccc2c(=O)c(-c3ccccc3)coc2c1", "solubility at 96 h", "1700 to 2000 µg/mL"),
]

###

- experiment: Solubility of Ipriflavon in aqueous cyclodextrin solutions (4 days agitation, 25° C., photometric)
- Type: physicochemical
- condition_context: aqueous β-cd 30 mg/ml, Solubility of Ipriflavon
- Experimental: One of the evidence of the formation of inclusion complex between Ipriflavon and cyclodextrin is that the cyclodextrin increases the solubility of Ipriflavon in aqueous solutions. […] After closing, the tubes were agitated for 4 days at 25° C. at 325 rpm, thereafter the samples were filtered on a G4 glass-filter and the filtrates were photometrically analysed in 50% aqueous ethanol solution.

# test_smiles, solubility at 96 h, µg/mL
rows = [
    ("CC(C)Oc1ccc2c(=O)c(-c3ccccc3)coc2c1", 7.59),
]

###

- experiment: Solubility of Ipriflavon in aqueous cyclodextrin solutions (4 days agitation, 25° C., photometric)
- Assay type: physicochemical
- condition_context: aqueous β-cd 1 mg/ml, Solubility of Ipriflavon
- Experimental: One of the evidence of the formation of inclusion complex between Ipriflavon and cyclodextrin is that the cyclodextrin increases the solubility of Ipriflavon in aqueous solutions. […] After closing, the tubes were agitated for 4 days at 25° C. at 325 rpm, thereafter the samples were filtered on a G4 glass-filter and the filtrates were photometrically analysed in 50% aqueous ethanol solution.

# test_smiles, solubility at 96 h [µg/mL]
rows = [
    ("CC(C)Oc1ccc2c(=O)c(-c3ccccc3)coc2c1", 2.52),
]

###

- experiment: physchem
- Format: physicochemical
- condition_context: distilled water, water

# test_smiles, solubility
data = [
    ("CC(C)Oc1ccc2c(=O)c(-c3ccccc3)coc2c1", "~1.5 µg/mL"),
]

###

- experiment: Solubility of Ipriflavon in aqueous cyclodextrin solutions (4 days agitation, 25° C., photometric)
- Assay type: physicochemical
- condition_context: aqueous α-cd 120 mg/ml, Solubility of Ipriflavon

# compound, solubility at 96 h
records = [
    ("CC(C)Oc1ccc2c(=O)c(-c3ccccc3)coc2c1 [Ipriflavon, 7-isopropoxy-isoflavon]", "23.6 µg/mL"),
]

###

- experiment: Solubility of Ipriflavon in aqueous cyclodextrin solutions (4 days agitation, 25° C., photometric)
- Format: physicochemical
- condition_context: aqueous α-cd 20 mg/ml, Solubility of Ipriflavon

# test_smiles, value_unit, solubility at 96 h
measured = [
    ("CC(C)Oc1ccc2c(=O)c(-c3ccccc3)coc2c1", "µg/mL", 6.1),
]

###

- experiment: Resorption test in rats: plasma level of unchanged Ipriflavon (HPLC)
- Type: in vivo, CFY male rats
- condition_context: rat, in vivo, po, 25 mg/kg, Plasma-level of unchanged Ipriflavon

# test_smiles, concentration at 4 h [ng/mL]
rows = [
    ("CC(C)Oc1ccc2c(=O)c(-c3ccccc3)coc2c1", 41),
]

###

- experiment: Solubility of Ipriflavon in aqueous cyclodextrin solutions (4 days agitation, 25° C., photometric)
- Type: physicochemical
- condition_context: aqueous β-cd 120 mg/ml, Solubility of Ipriflavon
measured_property: solubility at 96 h (µg/mL)

# test_smiles, measured_property, value_unit, value_measured
records = [
    ("CC(C)Oc1ccc2c(=O)c(-c3ccccc3)coc2c1", "solubility at 96 h", "µg/mL", 5.66),
]

###

- experiment: Solubility of Ipriflavon in aqueous cyclodextrin solutions (4 days agitation, 25° C., photometric)
- Assay type: physicochemical
- condition_context: aqueous α-cd 50 mg/ml, Solubility of Ipriflavon
measured_property: solubility at 96 h (µg/mL)

# test_smiles, measured_property, value_unit, value_measured
records = [
    ("CC(C)Oc1ccc2c(=O)c(-c3ccccc3)coc2c1", "solubility at 96 h", "µg/mL", 10.6),
]

###

- experiment: Solubility of Ipriflavon in aqueous cyclodextrin solutions (4 days agitation, 25° C., photometric)
- Type: physicochemical
- condition_context: aqueous β-cd 110 mg/ml, Solubility of Ipriflavon
measured_property: solubility at 96 h (µg/mL)

# compound, value_unit, value_measured
data = [
    ("CC(C)Oc1ccc2c(=O)c(-c3ccccc3)coc2c1 [Ipriflavon, 7-isopropoxy-isoflavon]", "µg/mL", 5.98),
]

###

- experiment: Solubility of Ipriflavon in aqueous cyclodextrin solutions (4 days agitation, 25° C., photometric)
- Type: physicochemical
- condition_context: aqueous β-cd 7 mg/ml, Solubility of Ipriflavon
measured_property: solubility at 96 h (µg/mL)

# compound, value_measured
data = [
    ("CC(C)Oc1ccc2c(=O)c(-c3ccccc3)coc2c1 [Ipriflavon, 7-isopropoxy-isoflavon]", 15.9),
]

###

- experiment: Solubility of Ipriflavon in aqueous cyclodextrin solutions (4 days agitation, 25° C., photometric)
- Assay type: physicochemical
- condition_context: aqueous β-cd 50 mg/ml, Solubility of Ipriflavon

# test_smiles, solubility at 96 h
data = [
    ("CC(C)Oc1ccc2c(=O)c(-c3ccccc3)coc2c1", "5.44 µg/mL"),
]

###

- experiment: Solubility of Ipriflavon in aqueous cyclodextrin solutions (4 days agitation, 25° C., photometric)
- Format: physicochemical
- condition_context: aqueous γ-cd 13 mg/ml, Solubility of Ipriflavon
measured_property: solubility at 96 h

# test_smiles, value_measured
data = [
    ("CC(C)Oc1ccc2c(=O)c(-c3ccccc3)coc2c1", "2.05 µg/mL"),
]

###

- experiment: Solubility of Ipriflavon in aqueous cyclodextrin solutions (4 days agitation, 25° C., photometric)
- Assay type: physicochemical
- condition_context: aqueous γ-cd solution, Solubility of Ipriflavon

# test_smiles, solubility at 96 h
data = [
    ("CC(C)Oc1ccc2c(=O)c(-c3ccccc3)coc2c1", "3.26 µg/mL"),
]

###

- experiment: Solubility of Ipriflavon in aqueous cyclodextrin solutions (4 days agitation, 25° C., photometric)
- Type: physicochemical
- condition_context: aqueous β-cd 70 mg/ml, Solubility of Ipriflavon
measured_property: solubility at 96 h

# compound, measured_property, value_measured
measured = [
    ("CC(C)Oc1ccc2c(=O)c(-c3ccccc3)coc2c1 [Ipriflavon, 7-isopropoxy-isoflavon]", "solubility at 96 h", "6.08 µg/mL"),
]

###

- experiment: Solubility of Ipriflavon in aqueous cyclodextrin solutions (4 days agitation, 25° C., photometric)
- Format: physicochemical
- condition_context: aqueous β-cd 3 mg/ml, Solubility of Ipriflavon
measured_property: solubility at 96 h

# molecule, measured_property, value_measured
data = [
    ("CC(C)Oc1ccc2c(=O)c(-c3ccccc3)coc2c1 [Ipriflavon, 7-isopropoxy-isoflavon]", "solubility at 96 h", "7.03 µg/mL"),
]

###

- experiment: Solubility of Ipriflavon in aqueous cyclodextrin solutions (4 days agitation, 25° C., photometric)
- Type: physicochemical
- condition_context: aqueous α-cd 13 mg/ml, Solubility of Ipriflavon

# test_smiles, solubility at 96 h (µg/mL)
rows = [
    ("CC(C)Oc1ccc2c(=O)c(-c3ccccc3)coc2c1", 4.68),
]

###

- experiment: Solubility of Ipriflavon in aqueous cyclodextrin solutions (4 days agitation, 25° C., photometric)
- Type: physicochemical
- condition_context: aqueous α-cd 30 mg/ml, Solubility of Ipriflavon

# test_smiles, solubility at 96 h (µg/mL)
measured = [
    ("CC(C)Oc1ccc2c(=O)c(-c3ccccc3)coc2c1", 8.19),
]

###

- experiment: Solubility of Ipriflavon in aqueous cyclodextrin solutions (4 days agitation, 25° C., photometric)
- Type: physicochemical
- condition_context: 15% aqueous trimeb, solubility in TRIMEB solution

# test_smiles, solubility at 96 h
data = [
    ("CC(C)Oc1ccc2c(=O)c(-c3ccccc3)coc2c1", "440 µg/mL"),
]

###

- experiment: Solubility of Ipriflavon in aqueous cyclodextrin solutions (4 days agitation, 25° C., photometric)
- Format: physicochemical
- condition_context: aqueous α-cd 11 mg/ml, Solubility of Ipriflavon

# test_smiles, solubility at 96 h / µg/mL
rows = [
    ("CC(C)Oc1ccc2c(=O)c(-c3ccccc3)coc2c1", 4.12),
]

###

- experiment: Solubility of Ipriflavon in aqueous cyclodextrin solutions (4 days agitation, 25° C., photometric)
- Type: physicochemical
- condition_context: aqueous γ-cd 30 mg/ml, Solubility of Ipriflavon
measured_property: solubility at 96 h (µg/mL)

# molecule, measured_property, value_unit, value_measured
records = [
    ("CC(C)Oc1ccc2c(=O)c(-c3ccccc3)coc2c1 [Ipriflavon, 7-isopropoxy-isoflavon]", "solubility at 96 h", "µg/mL", 2.74),
]

All values here come from patent US5043326A.
